Origin of values: the FLAb antibody collection

We begin with a simple list: items and their reported patients with anti-drug antibodies.
- test method notes: patients with anti-drug antibodies; higher = more immunogenic
quantity: patients with anti-drug antibodies (%)

{"protein": "unnamed (protein) chain 1: EVQLVESGGGLVEPGGSLRLSCAVSGFDFEKAWMSWVRQAPGQGLQWVARIKSTADGGTTSYAAPVEGRFIISRDDSRNMLYLQMNSLKTEDTAVYYCTSAHWGQGTLVTVSS chain 2: SYELTQPPSVSVSPGQTARITCSGEALPMQFAHWYQQRPGKAPVIVVYKDSERPSGVPERFSGSSSGTTATLTITGVQAEDEADYYCQSPDSTNTYEVFGGGTKLTVL", "quantity": "patients with anti-drug antibodies", "unit abbrev": "%", "reported measurement": 0}
{"protein": "unnamed (protein) chain 1: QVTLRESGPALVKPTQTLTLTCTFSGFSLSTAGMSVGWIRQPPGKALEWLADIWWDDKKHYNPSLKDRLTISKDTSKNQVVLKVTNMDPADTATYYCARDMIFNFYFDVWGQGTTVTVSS chain 2: DIQMTQSPSTLSASVGDRVTITCSASSRVGYMHWYQQKPGKAPKLLIYDTSKLASGVPSRFSGSGSGTEFTLTISSLQPDDFATYYCFQGSGYPFTFGGGTKVEIK", "quantity": "patients with anti-drug antibodies", "unit abbrev": "%", "reported measurement": 1.5}
{"protein": "unnamed (protein) chain 1: EVQLVQSGAEVKKPGESLKISCKGSGYIFTNYWIAWVRQMPGKGLESMGIIYPGDSDIRYSPSFQGQVTISADKSITTAYLQWSSLKASDTAMYYCARHDIEGFDYWGRGTLVTVSS chain 2: EIVLTQSPGTLSLSPGERATLSCRASQSVSSSFFAWYQQKPGQAPRLLIYGASSRATGIPDRLSGSGSGTDFTLTITRLEPEDFAVYYCQQYDSSAITFGQGTRLEIK", "quantity": "patients with anti-drug antibodies", "unit abbrev": "%", "reported measurement": 3.3}
{"protein": "unnamed (protein) chain 1: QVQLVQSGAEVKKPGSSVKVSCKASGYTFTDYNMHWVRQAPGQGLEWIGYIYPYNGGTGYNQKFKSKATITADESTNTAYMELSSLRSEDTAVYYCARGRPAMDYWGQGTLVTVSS chain 2: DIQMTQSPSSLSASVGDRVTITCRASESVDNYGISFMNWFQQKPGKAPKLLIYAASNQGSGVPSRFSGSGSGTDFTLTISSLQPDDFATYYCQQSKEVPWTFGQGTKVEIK", "quantity": "patients with anti-drug antibodies", "unit abbrev": "%", "reported measurement": 0}
{"protein": "unnamed (protein) chain 1: EVQLVQSGGGLVKPGGSLRLSCAASGFTFSSYSMNWVRQAPGKGLEWVSSISSSSSYIYYADSVKGRFTISRDNAKNSLYLQMNSLRAEDTAVYYCARVTDAFDIWGQGTMVTVSS chain 2: DIQMTQSPSSVSASIGDRVTITCRASQGIDNWLGWYQQKPGKAPKLLIYDASNLDTGVPSRFSGSGSGTYFTLTISSLQAEDFAVYFCQQAKAFPPTFGGGTKVDIK", "quantity": "patients with anti-drug antibodies", "unit abbrev": "%", "reported measurement": 4.1}
